Overview of recorded IC50 for various compounds
Test system: NCI-H810;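 also: IC50 reflects inhibition of cancer cell line growth, read out with a cell viability assay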
Experiment: cells
Assay type: functional, cell-based, Homo sapiens
Details: Homo sapiens, NCI-H810
Description: SANGER: Inhibition of human NCI-H810 cell growth in a cell viability assay.

- Compound: "C=CCc1cccc(/C=N/NC(=O)CN2CCN(Cc3ccccc3)CC2)c1O [PAC-1]"
  Test System: "NCI-H810"
  Observed Property: "IC50"
  Value: "> 2.56 µM"
- Compound: "COC(=O)CNC(=O)C(=O)OC"
  Test System: "NCI-H810"
  Observed Property: "IC50"
  Value: "630 µM"
- Compound: "C[C@]1(O)C[C@@H](c2nc(-c3ccc4ccc(-c5ccccc5)nc4c3)c3c(N)nccn32)C1 [LINSITINIB]"
  Test System: "NCI-H810"
  Observed Property: "IC50"
  Value: "> 2.56 µM"
- Compound: "Cc1cc([C@@H](C)Nc2ccccc2C(=O)O)c2nc(N3CCOCC3)cc(=O)n2c1 [AZD-6482]"
  Test System: "NCI-H810"
  Observed Property: "IC50"
  Value: "> 5.12 µM"
- Compound: "Cc1ccc(Nc2nccc(N(C)c3ccc4c(C)n(C)nc4c3)n2)cc1S(N)(=O)=O [PAZOPANIB]"
  Test System: "NCI-H810"
  Observed Property: "IC50"
  Value: "6.31 µM"
- Compound: "COc1ccc(-c2ccc3c(N4CCOC[C@@H]4C)nc(N4CCOC[C@@H]4C)nc3n2)cc1CO [AZD-8055]"
  Test System: "NCI-H810"
  Observed Property: "IC50"
  Value: "> 2 µM"
- Compound: "CN(Cc1cnc2nc(N)nc(N)c2n1)c1ccc(C(=O)N[C@@H](CCC(=O)O)C(=O)O)cc1 [METHOTREXATE]"
  Test System: "NCI-H810"
  Observed Property: "IC50"
  Value: "> 0.2 µM"
- Compound: "O=c1cc(-c2cccc3c2Sc2ccccc2S3)oc(N2CCOCC2)c1 [KU-55933]"
  Test System: "NCI-H810"
  Observed Property: "IC50"
  Value: "> 10 µM"

Here is another compound to look at.
The recorded IC50 with NCI-H810 for O=C(NOCC1CC1)c1ccc(F)c(F)c1Nc1ccc(I)cc1Cl [CI-1040] was > 10 µM

These measurements were taken from ChEMBL document CHEMBL1201861.
